Assay: reduction of polyQ htt aggregates in cells – imaging, exon1htt(103Q)mCFP cells, high-content imaging, primary screen (AID 483);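 also: compound exposure lasted 3 days before fixation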
Conditions: exon1htt(103Q)mCFP cell line, aggregate imaging, at 2 µM; active compounds read high
Assign inhibition of aggregation to each entry below.
Numbers only, in %.

Here's what some known entries look like.
O=C(O)COc1ccc(Oc2ccccc2)cc1 : 0.7
COCCn1c(C)c(C(=O)O)sc1=S : 8.1

Now let's try a different one.
Query: // inhibition of aggregation lookup, key: NC(=O)C1CCN(c2nc(-c3ccccc3)nc3ccccc23)CC1
Response: 2

====

Experiment: inhibitors of TNFa-induced NFkB p65 translocation, primary screen, imaging, HUVEC, MLSMR starter and 10KST1 sets (AID 438);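 also: compound added about 3h40 before a 20 min TNFalpha stimulation; signal is the nuclear over cytoplasmic p65 intensity ratio per well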
Conditions: HUVEC TNFa-induced p65 nuclear translocation; at 2 µM, active compounds read high, 0% TNFa-plus-vehicle, 100% no-TNFa wells
Readout Type: inhibition (%)
Give bare numbers, in %.

See these solved cases before continuing.
Nc1[nH]nc2nc(N3CCCC3)nc(-c3ccccc3)c12 : -9.5
O=C(C1=C(O)C(=O)N(Cc2ccccc2)C1c1ccncc1)c1ccco1 (centres undefined) : 8.3
COc1cc2c(cc1OC)CN(Cc1nc3ccsc3c(=O)[nH]1)CC2 : -6.2

Quick one: give me inhibition for each item below, same order please.
1. Cc1cc(N2C(=O)CC(N3CCN(c4ccc(C(=O)c5cccs5)cc4)CC3)C2=O)no1 (centres undefined)
2. Cc1ccc(S(=O)(=O)NCCC(=O)OCn2nnc3ccccc3c2=O)cc1
3. Cc1ccc(C)c2[nH]c(=O)c(CCNC(=O)c3ccc(S(=O)(=O)N(C)C)cc3)cc12
4. O=C(CSc1nnc(Cc2ccccc2)n1C1CCCCC1)N1CCOCC1
5. Cc1onc(-c2ccccc2)c1C(=O)N1CCN(C(=O)c2ccco2)CC1
6. CCC(=O)N1CCc2cc(S(=O)(=O)CCC(=O)Nc3c(C)n(C)n(-c4ccccc4)c3=O)ccc21

Response:
10.8
-0.8
4.3
7.2
2.2
7.7

For each of the compounds below, state inhibition.
1. O=C(Nc1ccc(S(=O)(=O)NCCc2ccccc2)cc1)c1ccc(Br)o1
2. Cc1ccc2nc3c(cc2c1)CN(Cc1ccco1)C(=NCC1CCCO1)S3 (centres undefined)
3. Cc1cc(C)cc(NS(=O)(=O)c2ccc3[nH]c(=O)[nH]c3c2)c1

Response:
[-1.3, 0.7, -5.5]

For every listed record, write down its inhibition.
1. CC(C)N(C=O)C1(C(=O)NC2CCCCC2)CCCCC1
2. COc1ccc(CCNC(=O)CSc2nnc(CNc3ccc(Cl)cc3)o2)cc1OC

Response:
[-6.3, -3.2]

====

Experiment: blockers of RIG-like receptor reporter activation – cell-based, Sendai virus stimulus, luciferase, 10K MLSCN set, TLR/RLR signaling modifier project, primary screen (AID 602276);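 also: firefly luciferase from ISG56 promoter only with Renilla not read in this screen; 0% = Sendai virus plus DMSO and 100% = medium plus DMSO without virus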
Conditions: HEK293 RL24 IRF3 luciferase reporter, at 10 µM, active compounds read high
inhibition of 10% or higher: Met. Under 10%: Not met.

Field: example entries. Status: answers known.
COc1ccc(CCNC(=O)CC2COc3ccccc3O2)cc1OC (stereo not given) : Met
CCCC(=O)Nc1ccc(NC(=O)c2cccs2)cn1 : Not met
COc1ccc(S(=O)(=O)NCCOc2ccccc2)cc1OC : Met
Cc1cc(NC(=O)CSc2nc3c(c(-c4cccnc4)c2C#N)CCC3)no1 : Not met
COCC(=O)NC(c1ccccc1)c1ccccc1 : Met
CC(=O)Nc1cccc(NC(=O)C2CCCN2C(=O)Nc2ccc(C)cc2)c1 (stereo not given) : Not met
CNC(=O)CSc1nc2c(c(=O)n(C)c(=O)n2C)n1Cc1ccc(C)cc1 : Not met
COC(=O)c1ccc(C(=O)OC)c(NC(=O)Nc2ccc3c(c2)OCO3)c1 : Not met
Cn1c(=O)c2ccccc2n(Cc2ccccc2F)c1=O : Not met
CS(=O)(=O)N(CC(=O)O)c1cccc(Cl)c1 : Not met

Query: For this compound, is measured inhibition 10% or higher? Cc1ccc(-c2cc(C(=O)NCc3ccc4c(c3)OCO4)no2)cc1
Response: Not met

Query: Given CC(C)NC(=O)c1ccccc1NC(=O)CCS(=O)(=O)Cc1ccccc1 , state whether its inhibition is at least 10%.
Response: Not met

Query: Please tell me: is the compound Cc1onc(-c2ccccc2)c1C(=O)N1CCOCC1 at or over 10% in terms of inhibition?
Response: Met

Query: Please indicate if the recorded inhibition for c1ccc(OCCCn2nnc(-c3ccncc3)n2)cc1 meets or exceeds 10%.
Response: Met

Query: Tell me whether inhibition is at least 10% here: Cc1sc2nc3n(c(=O)c2c1C)NC(=O)CC3
Response: Met

Query: Form field: inhibition at least 10%? Entry: CN(C)c1ccc(C=Nc2ccc(N(C)C)cc2)cc1
Response: Not met

Query: Assess whether reported inhibition for CN=C1CC(C)(C)CC(=O)/C1=C(/O)CCC(=O)NC sits at 10% or higher.
Response: Met

Query: Please indicate if the recorded inhibition for O=C(c1cccs1)N1CCc2ccccc21 meets or exceeds 10%.
Response: Not met

Query: I'd appreciate it if you could say whether Cn1c(=O)c2c(nc(CN3CCN(c4ccccc4F)CC3)n2CCN2CCOCC2)n(C)c1=O has inhibition at least equal to 10%.
Response: Met

Query: Could you tell me if the measured inhibition of Cc1cc2c(=O)n(Cc3ccco3)c(SCC(=O)NCc3ccco3)nc2s1 reaches 10% or more?
Response: Met

Query: Answer whether inhibition of O=c1[nH]c(Nc2ccccc2)cc2ccccc12 is greater than or equal to 10%.
Response: Not met

Query: Reported inhibition reaches at least 10% for Brc1ccc2ncnc(Nc3ccc(N4CCOCC4)cc3)c2c1 ?
Response: Met

Query: Assess whether reported inhibition for Cn1c(=O)c2c(nc(NCc3ccco3)n2C/C=C/c2ccccc2)n(C)c1=O sits at 10% or higher.
Response: Met

Query: Hi team, for CCOc1ccccc1C1CC(c2ccc(Br)cc2)Nc2nc(N)nn21 (stereo not given) , is the recorded inhibition at or above 10%?
Response: Met

Query: Is it the case that COc1ccc(-c2noc(COc3ccc(Cl)c(C)c3)n2)cc1 has inhibition reaching or exceeding 10%?
Response: Not met

Query: Entry O=C1OC(N2CCN(c3ccccn3)CC2)c2ccccc21 (stereo not given) : is its inhibition no less than 10%?
Response: Met

Query: Test whether the compound CC1Cc2ccccc2N1C(=O)c1cccnc1 (stereo not given) records inhibition of 10% or higher.
Response: Met
